Data provenance: patent US20260191849A1

System: HT29 cells
experiment: Combined use of compound 257, AMG650 or Compound A with PLK1 inhibitor on HT29 cell viability, 168 h (Biological Example 19)
Format: cell-based
study-conditions: HT29 cells, KIF18A inhibitor AMG650 80 nM, read-out: PLK1 inhibitor IC50
Description: HT29 cells were seeded on a 384-well plate at 3000 cells/well.
measured-quantity: pIC50
Numbers only, as −log10 of the molar value.

stdin: Suppose we examine the compound `COc1cc(C(=O)N[C@H]2CC[C@H](N3CCN(C)CC3)CC2)ccc1Nc1ncc2c(n1)N(C1CCCC1)CC1(CC1)C(=O)N2C` ; what pIC50 value has been reported?
stdout: 8.10

###

System: HT29 cells
experiment: Combined use of compound 257 with PLK1 inhibitor on HT29 cell viability, 72 h (Biological Example 5)
Format: cell-based
study-conditions: Homo sapiens, HT-29, 72 h, HT29 cells, Volasertib 25 nM
measured-quantity: IC50

stdin: What value of IC50 has been recorded for this entry: `COc1ccc(NC(=O)c2ccc(NS(=O)(=O)CCO)cc2N2CCC3(CC2)CC3)nc1N1CCC(F)(F)CC1`
stdout: 0.7 nM

###

Test system: HT29 cells
experiment: Combined use of compound 257, AMG650 or Compound A with PLK1 inhibitor on HT29 cell viability, 168 h (Biological Example 19)
Type: cell-based
study-conditions: HT29 cells, KIF18A inhibitor AMG650 16 nM, read-out: PLK1 inhibitor IC50
measured-quantity: pIC50
Numbers only, as −log10 of the molar value.

stdin: Please look up its pIC50: `COc1cc(C(=O)N[C@H]2CC[C@H](N3CCN(C)CC3)CC2)ccc1Nc1ncc2c(n1)N(C1CCCC1)CC1(CC1)C(=O)N2C`
stdout: 7.60

###

System: SK-OV-3 cells
experiment: Combined use of compound 257 or AMG650 with PLK1 inhibitor on SK-OV-3 cell viability, 168 h (Biological Example 21)
Format: cell-based
study-conditions: Homo sapiens, SK-OV-3, 168 h, SK-OV-3 cells, 168 h, KIF18A inhibitor Compound 257 400 nM; read-out: Volasertib IC50
Experimental: SK—OV-3 cells were seeded on a 384-well plate at 3000 cells/well. After overnight adherence culture, DMSO or compound 257 or AMG650 serially diluted in a 1:5 ratio from 400 nM and a PLK1 inhibitor with a specified concentration were added. The cell viability was assessed 168 h after dosing by measuring the intracellular ATP content. […] Furthermore, interactions between the drugs were also analyzed using the BLISS independence model, and the results are shown in FIG. 11 and FIG. 12.
measured-quantity: pIC50
Numbers only, as −log10 of the molar value.

stdin: For SK-OV-3 cells, provide pIC50 of CC[C@@H]1C(=O)N(C)c2cnc(Nc3ccc(C(=O)N[C@H]4CC[C@H](N5CCN(CC6CC6)CC5)CC4)cc3OC)nc2N1C(C)C [Volasertib] please.
stdout: 8.28

###

System: HCT116 cells
experiment: Combined use of compound 257, AMG650 or Compound A with PLK1 inhibitor on HCT116 cell viability, 168 h (Biological Example 20)
Assay type: cell-based
study-conditions: Homo sapiens, HCT-116, HCT116 cells, CYC140 (Plogosertib) 0 nM
Protocol: HCT116 cells were seeded on a 384-well plate at 3000 cells/well. After overnight adherence culture, DMSO or compound 257, AMG650, or Compound A serially diluted in a 1:5 ratio from 400 nM and a PLK1 inhibitor with a specified concentration were added. The cell viability was assessed 168 h after dosing by measuring the intracellular ATP content. The inhibition percentages of viable cells by the compounds were calculated by comparing with the DMSO group, and the IC50 values were also calculated.
pIC50: −log10 of the molar value.
measured-quantity: pIC50

Example entries begin here.
INSERT INTO results (compound, measured_quantity, test_result) VALUES
  ('CCS(=O)(=O)Nc1ccc2c(c1)C1(CCC3(CC3)CC1)CN2C(=O)c1cccc(S(=O)(=O)NC(C)(C)C)c1 [Compound A]', 'pIC50', '< 6.40'),
  ('Cc1cc(NC(=O)c2ccc(NS(=O)(=O)CCO)cc2N2CCC3(CC2)CC3)nc(N2CCC(F)(F)CC2)n1 [AMG650]', 'pIC50', '< 6.40');

Could you now look at the following compound, please?
stdin: Suppose we examine the compound COc1ccc(NC(=O)c2ccc(NS(=O)(=O)CCO)cc2N2CCC3(CC2)CC3)nc1N1CCC(F)(F)CC1 [Compound 257] ; what pIC50 value has been reported?
stdout: < 6.40
